# EXPERIMENT NOTES: ATG_DR4_LXR_CIS: Attagene CIS-FACTORIAL HepG2 Assay for human Liver X Receptor (LXR), DR4 submotif (AID 2282929)
# ASSAY SETUP: HepG2 Attagene DR4 cis-reporter, mRNA transcription; actives raise or lower the signal
Activity calls are given as the source filed them. Rule for the calls: active = hit-call score of the fitted dose curve at least 0.9, where 1 is the maximum; inactive = score below 0.9.
Respond only with the outcome that fits, drawn from label 1 (active), label 0 (inactive)

A selection of reference data follows.
{"COMPOUND": "CC1(C)[C@H](/C=C2\\CCSC2=O)[C@@H]1C(=O)OCc1coc(Cc2ccccc2)c1", "ANSWER LABEL": "label 1"}
{"COMPOUND": "O=C=Nc1ccc(Cl)cc1", "ANSWER LABEL": "label 0"}
{"COMPOUND": "CN(C)c1ccc(N=O)cc1", "ANSWER LABEL": "label 1"}

Challenge: Per the assay record, what outcome was assigned to Clc1cnc(Oc2ccc(Oc3ncc(Cl)cc3Cl)cc2)c(Cl)c1 ?
Response given: label 0

Challenge: Per the assay record, what outcome was assigned to c1cc[c]([Sb]([c]2ccccc2)[c]2ccccc2)cc1 ?
Response given: label 1

====

# Read-out: Intercellular Adhesion Molecule 1 (ICAM1), ICAM1 (gene 3383)
# EXPERIMENT NOTES: BSK_KF3CT_ICAM1: BioMAP Diversity Plus: KF3CT Assay for Intercellular Adhesion Molecule 1 (ICAM1) Biomarker Activity (AID 2283067)
# ASSAY SETUP: primary human keratinocytes with fibroblasts; actives raise or lower the signal
Activity calls are given as the source filed them. The calls were made as follows: active = hit-call score of the fitted dose curve at least 0.9, where 1 is the maximum; inactive = score below 0.9.
Respond only with the outcome that fits, drawn from 1 (yes) (active), 0 (no) (inactive)

Challenge: Per the assay record, what outcome was assigned to c1ccc2sc(SNC3CCCCC3)nc2c1 ?
Response given: 0 (no)

Challenge: Per the assay record, what outcome was assigned to N#Cc1cccnc1 ?
Response given: 0 (no)

Challenge: Per the assay record, what outcome was assigned to CCOP(=O)(OCC)OC(=CCl)c1ccc(Cl)cc1Cl ?
Response given: 0 (no)

Challenge: Per the assay record, what outcome was assigned to O=[N+]([O-])c1ccc(Nc2ccccc2)cc1 ?
Response given: 0 (no)

Challenge: Per the assay record, what outcome was assigned to CCCCOC(=O)COC(=O)c1ccccc1C(=O)OCCCC ?
Response given: 0 (no)

Challenge: Per the assay record, what outcome was assigned to COc1ccccc1N ?
Response given: 0 (no)

Challenge: Per the assay record, what outcome was assigned to Cc1cc(Cl)ccc1N ?
Response given: 0 (no)

====

# Read-out: Vascular cell adhesion molecule 1 (VCAM1), VCAM1 (gene 7412)
# EXPERIMENT NOTES: BSK_4H_VCAM1: BioMAP Diversity Plus: 4H Assay for Vascular cell adhesion molecule 1 (VCAM1) Biomarker Activity (AID 2283033)
# ASSAY SETUP: primary human endothelial cells (HUVEC); actives raise or lower the signal
Active and inactive are the calls of the source. Rule for the calls: active = hit-call score of the fitted dose curve at least 0.9, where 1 is the maximum; inactive = score below 0.9.
ENDPOINT: AC50

These solved cases illustrate the format of a correct answer.
{"COMPOUND": "Oc1c(Cl)cc(Cl)cc1Cl", "AC50": "inactive"}
{"COMPOUND": "CC(C)(C)c1cc([N+](=O)[O-])cc(C(C)(C)C)c1O", "AC50": "inactive"}
{"COMPOUND": "O=C(N[C@H]1CN2CCC1CC2)c1ccc2c(c1)OCCO2", "AC50": "inactive"}
{"COMPOUND": "COc1ccccc1N", "AC50": "inactive"}
{"COMPOUND": "Cc1cc(Cl)ccc1N", "AC50": "inactive"}
{"COMPOUND": "CCN(CC)C(=O)C(Cl)=C(C)OP(=O)(OC)OC", "AC50": "inactive"}
{"COMPOUND": "Cc1cc(C(C)(C)c2ccc(O)c(C)c2)ccc1O", "AC50": "16.8 µM (active)"}
{"COMPOUND": "O=S(=O)(C(Cl)(Cl)Cl)C(Cl)(Cl)Cl", "AC50": "1.43 µM (active)"}

Would you mind giving AC50 for every compound in the list below?
1. CC(C=O)Cc1ccc2c(c1)OCO2 (stereo not given)
2. CCOP(=O)(OCC)OC(=CCl)c1ccc(Cl)cc1Cl
3. CC(C)N(C(=O)CCl)c1ccccc1
4. O=[N+]([O-])c1cccc2ccccc12
5. C[C@]12CC[C@@H](O)C[C@@H]1CC[C@@H]1[C@@H]2CC[C@]2(C)C(=O)CC[C@@H]12
6. CCCCOC(=O)COC(=O)c1ccccc1C(=O)OCCCC
7. CCCCN(CCCC)C(=S)[S-].CCCCN(CCCC)C(=S)[S-].[Ni+2]

Response given:
inactive
32 µM (active)
20 µM (active)
inactive
inactive
inactive
inactive

Would you mind giving AC50 for every compound in the list below?
1. c1ccc(-c2cccc(-c3ccccc3)c2)cc1
2. O=C(O)C1(c2ccc3c(c2)OC[C@H](Cc2ccc(-c4ccccc4)cc2)[C@H]3O)CCCC1
3. Oc1cccc(-c2ccccc2)c1
4. Cc1ccc(OP(=O)(Oc2ccc(C)cc2C)Oc2ccc(C)cc2C)c(C)c1
5. CC(C)O.CC(C)O.OCCN(CCO)CCO.OCCN(CCO)CCO.[Ti]
6. CCOP(=O)(OCC)SCCSCC
7. O=[N+]([O-])c1ccc(Nc2ccccc2)cc1

Response given:
1. 14 µM (active)
2. inactive
3. 36.9 µM (active)
4. inactive
5. inactive
6. inactive
7. inactive

Would you mind giving AC50 for every compound in the list below?
1. C=CC(Cl)CCl (stereo not given)
2. O=c1oc2ccccc2c(O)c1C(CC(O)c1ccc(-c2ccc(Br)cc2)cc1)c1ccccc1 (stereo not given)
3. CCOP(=S)(OCC)OP(=S)(OCC)OCC
4. Clc1cccc(Cl)c1Cl

Response given:
1. inactive
2. 13.9 µM (active)
3. 33 µM (active)
4. inactive

Would you mind giving AC50 for every compound in the list below?
1. OCCCCO
2. N#Cc1cccnc1
3. O=C(CCl)NCO

Response given:
inactive
inactive
inactive

Would you mind giving AC50 for every compound in the list below?
1. Cc1ccccc1OP(=O)(Oc1ccccc1C)Oc1ccccc1C
2. O=C(O)COc1cc(Cl)c(Cl)cc1Cl
3. CCCCCCCCCCCCc1cccc(S(=O)(=O)O)c1
4. CCOP(=S)(OCC)SCS(=O)(=O)C(C)(C)C
5. O=C1C=CC(=O)c2ccccc21
6. OC(Cc1ccccc1Cl)(Cn1cncn1)C1(Cl)CC1 (stereo not given)
7. Cc1cc(Cl)ccc1OC(C)C(=O)O (stereo not given)
8. Cc1ccccc1OP(=O)(Oc1ccccc1)Oc1ccccc1

Response given:
1. 7.84 µM (active)
2. inactive
3. inactive
4. inactive
5. 1.95 µM (active)
6. inactive
7. inactive
8. 26.1 µM (active)

Would you mind giving AC50 for every compound in the list below?
1. c1ccc2sc(SNC3CCCCC3)nc2c1
2. COCC(=O)N(c1c(C)cccc1C)[C@H](C)C(=O)OC
3. CC(C)(C)c1ccccc1O

Response given:
inactive
inactive
inactive
